Biological target: T1, nuclear SREBP-2 (nSREBP-2) (rat, UniProt Q3T1I5 1-476)
T1 sequence: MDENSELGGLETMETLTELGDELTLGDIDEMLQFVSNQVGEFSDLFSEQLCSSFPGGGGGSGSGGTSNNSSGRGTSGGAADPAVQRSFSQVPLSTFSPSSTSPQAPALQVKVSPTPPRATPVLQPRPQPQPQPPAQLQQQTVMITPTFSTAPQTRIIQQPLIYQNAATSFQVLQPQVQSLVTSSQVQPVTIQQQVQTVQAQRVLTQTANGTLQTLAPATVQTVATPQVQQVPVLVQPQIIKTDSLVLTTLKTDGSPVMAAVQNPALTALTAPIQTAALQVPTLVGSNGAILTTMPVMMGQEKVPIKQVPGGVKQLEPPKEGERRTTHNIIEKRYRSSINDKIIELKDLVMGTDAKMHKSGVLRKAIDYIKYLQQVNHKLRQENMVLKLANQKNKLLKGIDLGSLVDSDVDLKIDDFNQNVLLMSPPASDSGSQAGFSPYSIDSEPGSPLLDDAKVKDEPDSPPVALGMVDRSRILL
Test: EMSA; EMSA with DIG-labeled annealed oligonucleotides (Roche DIG Gel Shift Kit, 2nd Generation) and TNT T7 in vitro-translated proteins; buffer, salt, pH and temperature not stated (ref 19)
Conditions: protein: ivt; chain copies: 2; label: DIG end-label; 5' overhangs 4 nt (AGCT / TCGA)
Readout type: binding result

These solved cases illustrate the format of a correct answer.
[
  {
    "Binder": "rTPO IV (dsDNA) DNA 1: AGCTATACTGTGGGATGTACCATA DNA 2: TCGATATGGTACATCCCACAGTAT",
    "Measured result": "no binding"
  },
  {
    "Binder": "rTPO III (dsDNA) DNA 1: AGCTGATAATCAGAAAGTCAGCAGAATACT DNA 2: TCGAAGTATTCTGCTGACTTTCTGATTATC",
    "Measured result": "binds"
  },
  {
    "Binder": "rTPO V (dsDNA) DNA 1: AGCTGTGGGATGTACCATAAATACCCAGG DNA 2: TCGACCTGGGTATTTATGGTACATCCCAC",
    "Measured result": "no binding"
  },
  {
    "Binder": "rTPO VI mut2 (dsDNA) DNA 1: AGCTCAGGCCTCTCCTCAGGTGGGGTTGACCAAGT DNA 2: TCGAACTTGGTCAACCCCACCTGAGGAGAGGCCTG",
    "Measured result": "binds"
  }
]

Could you now look at the following binder, please?
Per the records, this binder ( rTPO VI mut4 (dsDNA) DNA 1: AGCTCAGGCCTCTCAGATAGTGGGTCCTCCCAAGT DNA 2: TCGAACTTGGGAGGACCCACTATCTGAGAGGCCTG ) has binding result equal to no binding

Where do these numbers come from? They come from paper PMC3953333.
